# tested_system: MASP-2 CCP2-SP (Homo sapiens (Human))
# procedure_details: MASP-2 co-crystallization, X-ray crystallography and structure analysis (H-bonds, van der Waals contacts)
# condition_context: Table A7-2; between pharmacophore elements of the bound compound
Structures can show the parent of a compound that is named as a salt.
Reported values of Pharmacophore torsion angle a(O1, O2, N2, CA5) for individual entries
I'd appreciate a reply containing only the number, no unit.

N=C(N)c1ccc(CNC(=O)[C@@H]2CCN2C(=O)[C@H]2Cc3ccccc3CN2)cc1
137.68
Cc1nc(N)ccc1CNC(=O)[C@H](C)NC(=O)[C@H]1C[C@H](Cc2ccccc2-c2ccccc2)CN1 [compound 1373, Di-trifluoroacetate salt]
91.76
Cc1nc(N)ccc1CNC(=O)C(C)NC(=O)[C@H]1C[C@H](c2cccc(-c3ccccc3)c2)CN1 (stereo in doubt)
129.35
C[C@H](NC(=O)[C@H](N)C1Cc2ccccc2C1)C(=O)NCc1ccc2c(N)nccc2c1.Cl.Cl
116.27
C[C@H](NC(=O)[C@H]1Cc2c([nH]c3ccccc23)CN1)C(=O)NCc1ccc(C(=N)N)cc1.Cl.Cl [1097_1]
148.15

Recorded Pharmacophore torsion angle a(O1, O2, N2, CA5) for Cc1cccc([C@H]2CN[C@@H](C(=O)N[C@@H](C)C(=O)NCc3ccc(N)nc3C)C2)c1 [compound 1257, Dihydrochloride] on MASP-2 CCP2-SP (Homo sapiens (Human)) was 134.25

Recorded Pharmacophore torsion angle a(O1, O2, N2, CA5) for C[C@H](NC(=O)[C@H]1C[C@H](c2ccccc2)CN1)C(=O)NCc1ccc2c(N)nccc2c1 on MASP-2 CCP2-SP (Homo sapiens (Human)) was 134.91

Recorded Pharmacophore torsion angle a(O1, O2, N2, CA5) for C[C@H](NC(=O)[C@H]1Cc2c([nH]c3ccccc23)CN1)C(=O)NCc1ccc(C(=N)N)cc1.Cl.Cl [1097_2] on MASP-2 CCP2-SP (Homo sapiens (Human)) was 137.08

Recorded Pharmacophore torsion angle a(O1, O2, N2, CA5) for CC(=O)Nc1ccc(CCN[C@H](CCc2ccccc2)C(=O)N[C@@H](C)C(=O)NCc2ccc(N)nc2C)cc1 [compound 1368, Dihydrochloride] on MASP-2 CCP2-SP (Homo sapiens (Human)) was 124.36

Recorded Pharmacophore torsion angle a(O1, O2, N2, CA5) for C[C@H](NC(=O)[C@@H](CCc1ccccc1)NCc1ccc(C(=O)N2CCOCC2)cc1)C(=O)NCc1ccc(C(=N)N)cc1.Cl.Cl on MASP-2 CCP2-SP (Homo sapiens (Human)) was −161.98

Recorded Pharmacophore torsion angle a(O1, O2, N2, CA5) for N=C(N)c1ccc(CNC(=O)[C@@H]2CCN2C(=O)[C@H](NCC(=O)O)C2Cc3ccccc3C2)cc1 on MASP-2 CCP2-SP (Homo sapiens (Human)) was 145.95

Recorded Pharmacophore torsion angle a(O1, O2, N2, CA5) for C[C@H](NC(=O)[C@H]1C[C@@H](c2ccccc2)CN1)C(=O)NCc1ccc2c(N)nccc2c1.Cl.Cl on MASP-2 CCP2-SP (Homo sapiens (Human)) was 133.38

---

# tested_system: MASP-2 CCP2-SP (Homo sapiens (Human))
# procedure_details: MASP-2 co-crystallization, X-ray crystallography and structure analysis (H-bonds, van der Waals contacts)
# Set-up: unit not given beside the values
# condition_context: Table A5-1 pharmacophore: distance between elements, S2/S1 region
Reported values of d(O4,H2) for individual entries

Use these answered entries as a reference point.
C[C@H](NC(=O)[C@H]1C[C@@H](c2ccccc2)CCN1)C(=O)NCc1cc(Cl)ccc1O.Cl [1078_6]
0.98
C[C@H](NC(=O)[C@H]1C[C@@H](c2ccccc2)CCN1)C(=O)NCc1cc(Cl)ccc1O.Cl [1078_10]
0.97
C[C@H](NC(=O)[C@H]1C[C@@H](c2ccccc2)CCN1)C(=O)NCc1cc(Cl)ccc1O.Cl [1078_2]
0.97

As a next step, examine the molecule that follows.
The measured d(O4,H2) associated with C[C@H](NC(=O)[C@H]1C[C@@H](c2ccccc2)CCN1)C(=O)NCc1cc(Cl)ccc1O.Cl [1078_9] reads 0.98

---

# tested_system: MASP-2 CCP2-SP (Homo sapiens (Human), UniProt O00187)
# Sequence (O00187 445-686): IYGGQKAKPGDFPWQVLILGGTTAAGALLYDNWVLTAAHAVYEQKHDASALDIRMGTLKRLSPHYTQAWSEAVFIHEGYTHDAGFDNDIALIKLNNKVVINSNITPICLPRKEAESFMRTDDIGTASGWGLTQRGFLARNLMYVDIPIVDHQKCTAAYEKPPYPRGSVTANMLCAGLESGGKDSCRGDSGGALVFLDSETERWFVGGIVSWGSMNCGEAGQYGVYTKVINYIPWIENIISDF
# Sequence (O00187 364-432 partner): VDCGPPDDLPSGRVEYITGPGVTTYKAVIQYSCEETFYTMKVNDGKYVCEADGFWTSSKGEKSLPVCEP
# procedure_details: MASP-2 co-crystallization, X-ray crystallography and structure analysis (H-bonds, van der Waals contacts)
# Parameters: unit not given beside the values
# condition_context: Table A2-1
Counter-ions that a name gives are not always drawn.
endpoint: van der Waals contact distance, MASP-2 HIS 483 atom CD2
I'd appreciate a reply containing only the number, no unit.

The measured van der Waals contact distance, MASP-2 HIS 483 atom CD2 associated with Cc1nc(N)ccc1CNC(=O)[C@H](C)NC(=O)[C@H]1C[C@@H](c2ccccc2)CCN1CCC(=O)O [compound 1411, Trifluoroacetate salt] reads 3.51

The measured van der Waals contact distance, MASP-2 HIS 483 atom CD2 associated with C[C@H](NC(=O)[C@H](N)C1Cc2ccccc2C1)C(=O)NCc1ccc2nc(N)[nH]c2c1 reads 3.69

The measured van der Waals contact distance, MASP-2 HIS 483 atom CD2 associated with Cc1nc(N)ccc1CNC(=O)[C@H](C)NC(=O)[C@H]1C[C@H](Cc2cc(Cl)cc(Cl)c2)CN1 [compound 1435, Dihydrochloride] reads 3.7

The measured van der Waals contact distance, MASP-2 HIS 483 atom CD2 associated with C[C@H](NC(=O)[C@H]1C[C@H](Cc2ccccc2)CN1)C(=O)NCc1ccc(C(=N)N)cc1 reads 3.47

The measured van der Waals contact distance, MASP-2 HIS 483 atom CD2 associated with Cc1nc(N)ccc1CNC(=O)[C@H](C)NC(=O)[C@H]1C[C@H](Cc2ccc3ccccc3c2)CN1 reads 3.58

---

# tested_system: MASP-2 CCP2-SP (Homo sapiens (Human), UniProt O00187)
# procedure_details: MASP-2 co-crystallization, X-ray crystallography and structure analysis (H-bonds, van der Waals contacts)
# condition_context: Table A8-6; 6th residue column; nearest protein atom in cell to the left
# Description: This example illustrates the preparation of recombinant MASP-2 protein, based on UniProt O00187, human mannan-binding lectin serine protease 2. Expression constructs for human MASP-2 CCP2-SP and CCP2-SP-6HIS were generated for recombinant expression in E. coli cells. […]
endpoint: Pharmacophore protein distance to MET_658 (first MET_658 column)
I'd appreciate a reply containing only the number, no unit.

C[C@H](NC(=O)[C@@H](CCc1ccccc1)NCc1ccc(N2CCOCC2)cc1)C(=O)NCc1ccc(C(=N)N)cc1 [compound 1149]
2.55
C[C@H](NC(=O)[C@H](N)CCc1ccccc1)C(=O)NCc1ccc(N)nc1.Cl.Cl [1007_1]
2.61

The measured Pharmacophore protein distance to MET_658 (first MET_658 column) associated with C[C@H](NC(=O)[C@H]1Cc2c([nH]c3ccccc23)CN1)C(=O)NCc1ccc(C(=N)N)cc1.Cl.Cl [1097_2] reads 2.55

The measured Pharmacophore protein distance to MET_658 (first MET_658 column) associated with C[C@H](NC(=O)[C@H]1Cc2c([nH]c3ccccc23)CN1)C(=O)NCc1ccc(C(=N)N)cc1.Cl.Cl [1097_1] reads 2.40

The measured Pharmacophore protein distance to MET_658 (first MET_658 column) associated with C[C@H](NC(=O)[C@H](N)CCCc1ccccc1)C(=O)NCc1ccc(C(=N)N)cc1.Cl.Cl [1042_3] reads 2.74

The measured Pharmacophore protein distance to MET_658 (first MET_658 column) associated with N=C(N)c1ccc(CNC(=O)[C@@H]2CCN2C(=O)[C@H](NCC(=O)O)C2Cc3ccccc3C2)cc1 [compound 1129] reads 2.85

The measured Pharmacophore protein distance to MET_658 (first MET_658 column) associated with C[C@H](NC(=O)[C@H](N)CCc1ccccc1)C(=O)NCc1ccc(C(=N)N)cc1 [compound 1024] reads 1.94

---

# tested_system: UniProt O00187
# procedure_details: MASP-2 co-crystallization, X-ray crystallography and structure analysis (H-bonds, van der Waals contacts)
# condition_context: Table A6-1 pharmacophore angle; Methyl-amino-pyridine compounds
endpoint: a(N1, CA1, O1) b)

Cc1nc(N)ccc1CNC(=O)C(C)NC(=O)C1CC(c2cccc3ccccc23)CCN1.Cl.Cl (stereo not shown) [1297_6]
173.49
Cc1nc(N)ccc1CNC(=O)[C@H](C)NC(=O)[C@H]1C[C@H](Cc2cccc(-c3ccccc3)c2)CN1
173.92
Cc1nc(N)ccc1CNC(=O)[C@H](C)NC(=O)[C@H]1C[C@H](Cc2ccccc2Br)CN1.O=C(O)C(F)(F)F.O=C(O)C(F)(F)F [1372_B]
174.13

As a next step, examine the molecule that follows.
The measured a(N1, CA1, O1) b) associated with Cc1nc(N)ccc1CNC(=O)[C@H](C)NC(=O)[C@H]1C[C@H](Cc2ccc3ccccc3c2)CN1 reads 173.72

Where do these numbers come from? They come from patent US12195427B2.
